# Assayed system: C5a anaphylatoxin chemotactic receptor 1 (Homo sapiens)
# Sequence (P21730 whole entry): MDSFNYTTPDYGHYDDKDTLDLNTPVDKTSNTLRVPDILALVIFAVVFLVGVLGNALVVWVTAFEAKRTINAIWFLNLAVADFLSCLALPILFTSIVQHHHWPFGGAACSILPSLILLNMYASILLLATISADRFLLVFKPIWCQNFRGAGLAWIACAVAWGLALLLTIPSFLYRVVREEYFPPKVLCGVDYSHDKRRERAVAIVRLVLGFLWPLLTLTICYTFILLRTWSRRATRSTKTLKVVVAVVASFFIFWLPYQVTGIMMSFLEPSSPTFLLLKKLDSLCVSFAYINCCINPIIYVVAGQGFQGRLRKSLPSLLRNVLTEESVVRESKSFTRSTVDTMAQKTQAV
# Measurement notes: Inhibition of [125I]C5a binding to C5a anaphylatoxin chemotactic receptor of human neutrophil membrane preparations at 30 uM.
This listing pairs molecules with measured inhibition.
Number in %, nothing else.

Consider the following illustrative entries.
N=C(N)NCCC[C@H]1NC(=O)N([C@H](Cc2cccc3ccccc23)C(=O)N2CCC3(CCc4ccccc43)CC2)C1=O	77
N=C(N)NCCC[C@H]1NC(=O)N([C@H](CC(=O)N2CCCCC2)C(=O)N2CCC3(CCc4ccccc43)CC2)C1=O	26

GET /value?item= N=C(N)NCCC[C@@H]1NC(=O)N([C@H](Cc2ccccc2)C(=O)N2CCC3(CCc4ccccc43)CC2)C1=O &field=inhibition returns 39

Reported inhibition of CC(O)[C@H](C(=O)N1CCC2(CCc3ccccc32)CC1)N1C(=O)N[C@H](CCCN=C(N)N)C1=O (stereo partly drawn) : 14

For N=C(N)NCCC[C@H]1NC(=O)N(C(CCc2ccccc2)C(=O)N2CCC3(CCc4ccccc43)CC2)C1=O (stereo partly drawn) the molecule record lists inhibition as 46

Query CC(=O)OCC1(c2ccccc2)CCN(C(=O)[C@@H](CC2CCCCC2)N2C(=O)N[C@H](CCCN=C(N)N)C2=O)CC1 yields inhibition of 35

Documented inhibition of N=C(N)NCCC[C@H]1NC(=O)N([C@H](Cc2ccc(F)cc2)C(=O)N2CCC3(CCc4ccccc43)CC2)C1=O : 75

inhibition reading for CCCC[C@H](C(=O)N1CCC2(CCc3ccccc32)CC1)N1C(=O)N[C@H](CCCN=C(N)N)C1=O : 20

====

# Assayed system: C5a anaphylatoxin chemotactic receptor 1 (Homo sapiens) (UniProt P21730)
# Sequence (P21730 whole entry): as above
# Measurement notes: Tested for the ability to compete with [125I]-CO13 [125I]-Y-F-K-A-Cha-G-L-dF-R) for binding to C5a anaphylatoxin chemotactic receptor of human neutrophil membrane preparations at 30 uM concentration
Binary classification by inhibition, with 60% as an inclusive lower bound for Fulfilled; all other cases are Not fulfilled.

Nc1ccc(C[C@H]2NC(=O)N([C@H](CC3CCCCC3)C(=O)N3CCC4(CCc5ccccc54)CC3)C2=O)cc1	Fulfilled
N=C(N)NCCC[C@H]1NC(=O)N([C@H](CC(=O)N2CCCCC2)C(=O)N2CCC3(CCc4ccccc43)CC2)C1=O	Not fulfilled
CC(O)[C@H](C(=O)N1CCC2(CCc3ccccc32)CC1)N1C(=O)N[C@H](CCCN=C(N)N)C1=O (stereo partly drawn)	Not fulfilled
CC(=O)OCC1(c2ccccc2)CCN(C(=O)[C@@H](CC2CCCCC2)N2C(=O)N[C@H](CCCN=C(N)N)C2=O)CC1	Not fulfilled
N=C(N)NCCC[C@H]1NC(=O)N(C(Cc2ccccc2)C(=O)N2CCC3(CCc4ccccc43)CC2)C1=O (stereo partly drawn)	Fulfilled

Tell me whether inhibition is at least 60% here: CC(C)c1ccccc1N1CCN(C(=O)[C@@H](CC2CCCCC2)N2C(=O)N[C@H](CCCN=C(N)N)C2=O)CC1
Not fulfilled

Form field: inhibition at least 60%? Entry: NC(=O)NCCC[C@H]1NC(=O)N([C@H](CC2CCCCC2)C(=O)N2CCC3(CCc4ccccc43)CC2)C1=O
Not fulfilled

Form field: inhibition at least 60%? Entry: N=C(N)NCCC[C@H]1NC(=O)N([C@@H](Cc2ccccc2)C(=O)N2CCC3(CCc4ccccc43)CC2)C1=O
Not fulfilled

====

# Assayed system: C5a anaphylatoxin chemotactic receptor 1 (Homo sapiens)
# Measurement notes: Tested for its ability to compete with [125I]C5a for binding to C5a anaphylatoxin chemotactic receptor of human neutrophil membrane preparations
Property label: pIC50
# pIC50 is unitless: minus log10 of the molar concentration; print number only

See these solved cases before continuing.
Cc1ccc(N2CCN(C(=O)[C@@H](CC3CCCCC3)N3C(=O)N[C@H](CCCN=C(N)N)C3=O)CC2)c(C)c1	6.52
CC(C)C[C@H](C(=O)N1CCC2(CCc3ccccc32)CC1)N1C(=O)N[C@H](CCCN=C(N)N)C1=O	5.70
N=C(N)NCCC[C@H]1NC(=O)N([C@H](CC2CCCCC2)C(=O)N2CCC3(C=Cc4ccccc43)CC2)C1=O	5.82
N=C(N)NCCC[C@H]1NC(=O)N([C@H](CC2CCCCC2)C(=O)N2CCC3(CCc4ccccc43)CC2)C1=O	6.52

Bench note, C5a anaphylatoxin chemotactic receptor 1 (Homo sapiens): entry N=C(N)NCCC[C@H]1NC(=O)N([C@H](Cc2ccccc2)C(=O)N2CCC3(CCc4ccccc43)CC2)C1=O , its pIC50 = 5.10
